# EXPERIMENTAL_PROTOCOL: Plasma pharmacokinetics after oral dosing, rat
# Format: in vivo
# CONDITION_NOTES: Rat (n = 4), 100 mg Active Agent/kg
VALUE_TYPE: Tmax (h)

COMPOUND_SMILES	UNIT_STRING	RECORDED_MEASUREMENT
COc1ccc(C(=O)c2cn(C(C)C)c3ncnc(N)c23)cc1NC(=O)Nc1ccc(Cl)cc1Cl	h	4.5

###

# EXPERIMENTAL_PROTOCOL: Plasma pharmacokinetics after oral dosing, dog
# Assay type: in vivo
# CONDITION_NOTES: Dog (n = 3), 30 mg Active Agent/kg

COMPOUND_SMILES	UNIT_STRING	Tmax
COc1ccc(C(=O)c2cn(C(C)C)c3ncnc(N)c23)cc1NC(=O)Nc1ccc(Cl)cc1Cl	h	4

###

# SYSTEM_TESTED: fully activated recombinant GST-TIE2 construct (Homo sapiens)
# Sequence (Q02763 23-1124): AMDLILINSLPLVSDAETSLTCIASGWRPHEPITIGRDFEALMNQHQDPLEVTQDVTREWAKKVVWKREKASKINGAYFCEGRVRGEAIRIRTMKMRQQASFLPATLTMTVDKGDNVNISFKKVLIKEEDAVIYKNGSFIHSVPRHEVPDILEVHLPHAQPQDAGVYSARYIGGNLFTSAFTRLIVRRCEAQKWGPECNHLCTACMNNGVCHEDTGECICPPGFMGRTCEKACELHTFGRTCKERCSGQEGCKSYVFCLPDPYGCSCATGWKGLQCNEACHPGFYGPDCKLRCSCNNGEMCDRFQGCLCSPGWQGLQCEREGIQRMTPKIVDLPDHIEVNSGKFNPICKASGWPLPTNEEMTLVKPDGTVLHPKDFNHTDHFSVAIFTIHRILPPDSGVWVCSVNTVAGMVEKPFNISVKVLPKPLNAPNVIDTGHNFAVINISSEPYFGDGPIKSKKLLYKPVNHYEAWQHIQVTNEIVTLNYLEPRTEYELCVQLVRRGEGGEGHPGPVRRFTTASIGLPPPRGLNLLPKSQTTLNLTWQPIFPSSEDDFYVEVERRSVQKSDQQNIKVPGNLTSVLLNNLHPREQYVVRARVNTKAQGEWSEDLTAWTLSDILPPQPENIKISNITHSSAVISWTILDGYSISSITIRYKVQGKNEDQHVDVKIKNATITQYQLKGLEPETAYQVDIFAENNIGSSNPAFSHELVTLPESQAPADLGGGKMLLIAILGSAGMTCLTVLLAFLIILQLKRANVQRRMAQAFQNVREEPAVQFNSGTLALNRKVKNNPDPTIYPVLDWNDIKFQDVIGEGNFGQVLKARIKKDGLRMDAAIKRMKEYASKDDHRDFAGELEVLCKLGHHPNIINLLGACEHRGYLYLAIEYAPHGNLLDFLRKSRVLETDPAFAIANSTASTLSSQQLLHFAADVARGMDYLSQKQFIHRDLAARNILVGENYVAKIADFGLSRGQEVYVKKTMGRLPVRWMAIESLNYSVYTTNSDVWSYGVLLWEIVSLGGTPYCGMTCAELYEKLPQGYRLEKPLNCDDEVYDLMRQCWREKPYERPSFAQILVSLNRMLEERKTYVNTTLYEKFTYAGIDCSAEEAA
# EXPERIMENTAL_PROTOCOL: Tie-2 tyrosine kinase inhibition, GST-Tie-2 fusion protein, PGT plate ELISA

COMPOUND_SMILES	IC50
COc1ccc(C(=O)c2cn(C(C)C)c3ncnc(N)c23)cc1NC(=O)Nc1ccc(Cl)cc1Cl	0.28 µM

###

# EXPERIMENTAL_PROTOCOL: Plasma pharmacokinetics after oral dosing, dog
# Format: in vivo
# CONDITION_NOTES: Dog (n = 3), 30 mg Active Agent/kg

COMPOUND_SMILES	Cmax (ng/mL)
COc1ccc(C(=O)c2cn(C(C)C)c3ncnc(N)c23)cc1NC(=O)Nc1ccc(Cl)cc1Cl	347

###

# EXPERIMENTAL_PROTOCOL: Plasma pharmacokinetics after oral dosing, dog
# Format: in vivo
# CONDITION_NOTES: Dog (n = 3), 30 mg Active Agent/kg, read-out: AUC0-24

COMPOUND_SMILES	UNIT_STRING	AUC(0-t)
COc1ccc(C(=O)c2cn(C(C)C)c3ncnc(N)c23)cc1NC(=O)Nc1ccc(Cl)cc1Cl	ng·h/mL	2810

###

# EXPERIMENTAL_PROTOCOL: Hygroscopicity of salt forms
# Format: physicochemical
# CONDITION_NOTES: at 90 percent relative humidity at ambient temperature

COMPOUND	Hygroscopicity
COc1ccc(C(=O)c2cn(C(C)C)c3ncnc(N)c23)cc1NC(=O)Nc1ccc(Cl)cc1Cl.Cc1ccc(S(=O)(=O)O)cc1	1.1 percent (by weight)
COc1ccc(C(=O)c2cn(C(C)C)c3ncnc(N)c23)cc1NC(=O)Nc1ccc(Cl)cc1Cl.CS(=O)(=O)O [Example 3]	1.6 percent (by weight)
COc1ccc(C(=O)c2cn(C(C)C)c3ncnc(N)c23)cc1NC(=O)Nc1ccc(Cl)cc1Cl.O=P(O)(O)O	0.8 percent (by weight)
COc1ccc(C(=O)c2cn(C(C)C)c3ncnc(N)c23)cc1NC(=O)Nc1ccc(Cl)cc1Cl.CS(=O)(=O)O [Example 2]	7.9 percent (by weight)
COc1ccc(C(=O)c2cn(C(C)C)c3ncnc(N)c23)cc1NC(=O)Nc1ccc(Cl)cc1Cl.O=S(=O)(O)c1ccccc1	2.0 percent (by weight)

###

# SYSTEM_TESTED: recombinant human erbB-TIE2 chimeric receptor overexpressed in C6 rat glioma cells (Homo sapiens, UniProt Q02763)
# Construct: erbB extracellular domain with TIE2 intracellular domain; extracellular domain of human EGFR (erbB)
# Sequence (Q02763 770-1124 limits assumed, change not shown): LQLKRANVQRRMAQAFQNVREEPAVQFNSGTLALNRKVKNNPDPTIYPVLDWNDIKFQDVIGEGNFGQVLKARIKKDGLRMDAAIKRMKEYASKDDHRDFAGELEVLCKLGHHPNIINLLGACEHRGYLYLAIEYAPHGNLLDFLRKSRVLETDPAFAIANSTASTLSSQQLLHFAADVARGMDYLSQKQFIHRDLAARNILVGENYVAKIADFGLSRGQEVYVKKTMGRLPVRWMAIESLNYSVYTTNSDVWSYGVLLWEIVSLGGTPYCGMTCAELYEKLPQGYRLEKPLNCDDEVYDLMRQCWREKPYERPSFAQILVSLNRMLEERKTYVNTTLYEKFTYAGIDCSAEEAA
# EXPERIMENTAL_PROTOCOL: Cell-based TIE-2 kinase activity of chimeric receptor
VALUE_TYPE: IC50 (nM)

COMPOUND_SMILES	VALUE_TYPE	RECORDED_MEASUREMENT
COc1ccc(C(=O)c2cn(C(C)C)c3ncnc(N)c23)cc1NC(=O)Nc1ccc(Cl)cc1Cl	IC50	4.67
